Biological target: aldose reductase (Bos taurus)
Construct: preparation of the enzyme from bovine lens; from tissue; host or cells: bovine lens
Assay: in vitro aldose reductase inhibition (modified Hayman and Kinoshita procedure; enzyme from bovine lens)
Format: biochemical
Conditions: 10^-7 molar, read-out: Percent Inhibition at Different Molar Concentrations (in vitro)
property measured: inhibition at 0.1 µM (%)

O=C(O)CN1C(=O)c2cccc3c(C(=O)c4ccccc4)ccc(c23)C1=O :: 22
O=C(O)CN1C(=O)c2cccc3c(Sc4ccccc4)ccc(c23)C1=O :: 22

A = O=C(O)CN1C(=O)c2cccc3cccc(c23)C1=O [reference compound]
B = O=C(O)CN1C(=O)c2cccc3c(Sc4ccccc4C(=O)O)ccc(c23)C1=O
C = CCCCCCCCCCSc1ccc2c3c(cccc13)C(=O)N(CC(=O)O)C2=O
D = O=C(O)CN1C(=O)c2cccc3c(Cl)ccc(c23)C1=O
Order the records, beginning with the lowest inhibition at 0.1 µM and ending with the highest. // list labels; follow requested order
A, D, B, C
